List of IC50 values.
system: T1, Recombinant in-house Human FcRn protein (human, UniProt P55899 24-297; P61769 21-119, limits assumed)
T1 construct: also called huFCRN; HuFcRn
T1 sequence (P55899 24-297 limits assumed, chain 1 of 2): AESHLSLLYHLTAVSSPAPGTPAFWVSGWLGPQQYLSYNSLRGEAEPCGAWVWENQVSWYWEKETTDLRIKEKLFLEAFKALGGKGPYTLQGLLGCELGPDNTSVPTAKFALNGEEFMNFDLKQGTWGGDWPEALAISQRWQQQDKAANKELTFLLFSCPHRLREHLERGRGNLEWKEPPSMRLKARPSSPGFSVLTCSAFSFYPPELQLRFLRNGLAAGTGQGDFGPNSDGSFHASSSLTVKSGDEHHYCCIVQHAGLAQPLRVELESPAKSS
T1 sequence (P61769 21-119 limits assumed, chain 2 of 2): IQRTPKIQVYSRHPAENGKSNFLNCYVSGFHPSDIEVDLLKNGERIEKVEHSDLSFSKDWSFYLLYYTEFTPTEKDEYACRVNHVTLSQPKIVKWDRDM
assay.remarks: competitive binding ELISA, pH 6.0, in triplicate; competitor IgG

- binder: "Fc Fragment 18 (other, Human IgG1 Fc fragment; substitutions already in the entry) DKTHTCPPCPAPELLGGPSVFLFPPKPKDTLYITREPEVTCVVVDVSHEDPEVKFNWYVDGVEVHNAKTKPREEQYNSTYRVVSVLTVDHQDWLNGKEYKCKVSNKALPAPIEKTISKAKGQPREPQVYTLPPSRDELTKNQVSLTCLVKGFYPSDIAVEWESNGQPENNYKTTPPVLDSDGSFFLYSKLTVDKSRWQQGNVFSCSVLHEALKYHYTQKSLSLSPG"
  IC50: "6.91 nM"
- binder: "Fc Fragment 11 (other, Human IgG1 Fc fragment; substitutions already in the entry) DKTHTCPPCPAPELLGGPSVFLFPPKPKDTLYITREPEVTCVVVDVSHEDPEVKFNWYVDGVEVHNAKTKPREEQYNSTYRVVSVLTVLHQDWLNGKEYKCKVSNKALPAPIEKTISKAKGQPREPQVYTLPPSRDELTKNQVSLTCLVKGFYPSDIAVEWESNGQPENNYKTTPPVLDSDGSFFLYSKLTVDKSRWQQGNVFSCSVLHEALHFHYTQKSLSLSPG"
  IC50: "1.51 nM"
- binder: "Fc Fragment 14 (other, Human IgG1 Fc fragment; substitutions already in the entry) DKTHTCPPCPAPELLGGPSVFLFPPKPKDTLYITREPEVTCVVVDVSHEDPEVKFNWYVDGVEVHNAKTKPREEQYNSTYRVVSVLTVLHQDWLNGKEYKCKVSNKALPAPIEKTISKAKGQPREPQVYTLPPSRDELTKNQVSLTCLVKGFYPSDIAVEWESNGQPENNYKTTPPVLDSDGSFFLYSKLTVDKSRWQQGNVFSCSVLHEALRFHYTQKSLSLSPG"
  IC50: "2.09 nM"
